Data origin: patent US20250122191A1

tested on: Toledo cells; test: Cell proliferation assay (MTS), Toledo cells; assay type: cell-based; details: Homo sapiens, 72 h
Task for the reader: assign each of the following compounds its reported IC50.
Express it in nM; write the number only.

What does the record list as IC50 for CC(C)c1ccccc1[C@@H]1CN(Cc2cc3c(cn2)OCCO3)CCN1C1CC2(CCN(c3ccc(C(=O)NS(=O)(=O)c4cnc(NC[C@H]5CC[C@](C)(O)CC5)c([N+](=O)[O-])c4)c(Oc4cnc5[nH]cc(F)c5c4)c3)CC2)C1 [Example 341] ? 1

For COCCN1CCN(C2CC3(CCN(c4ccc(C(=O)NS(=O)(=O)c5cnc(NC[C@H]6CC[C@](C)(O)CC6)c([N+](=O)[O-])c5)c(Oc5cnc6[nH]cc(F)c6c5)c4)CC3)C2)[C@H](c2ccccc2C(C)C)C1 [Example 203] , what is its reported IC50? 1

Query (compound): COc1ccc(CN2CCN(C3CC4(CCN(c5ccc(C(=O)NS(=O)(=O)c6cnc(NC[C@H]7CC[C@](C)(O)CC7)c([N+](=O)[O-])c6)c(Oc6cnc7[nH]cc(F)c7c6)c5)CC4)C3)[C@H](c3ccccc3C(C)C)C2)cc1 [Example 71] ; field requested: IC50 1

If you can, please state the reported IC50 value of CCOc1nc2[nH]cc(F)c2cc1Oc1cc(N2CCC3(CC2)CC(N2CCN(C)C[C@H]2c2ccccc2C(C)C)C3)ccc1C(=O)NS(=O)(=O)c1cnc(NC[C@H]2CC[C@](C)(O)CC2)c([N+](=O)[O-])c1 [Example 138] . 1

* * *

tested on: Toledo cells; assay: Cell proliferation assay (MTS), Toledo cells; type: cell-based; settings: Homo sapiens, 72 h
endpoint.name: IC50 (nM)
I only need the number, in nM, no unit after it.

Any idea what its IC50 is? The compound is CCOc1nc2[nH]cc(F)c2cc1Oc1cc(N2CCC3(CC2)CC(N2CCN(Cc4ccc(OC)c5oc(C)cc45)C[C@H]2c2ccccc2C(C)C)C3)ccc1C(=O)NS(=O)(=O)c1cnc(NC[C@H]2CC[C@](C)(O)CC2)c([N+](=O)[O-])c1 [Example 14] 1

Which measured IC50 value corresponds to COc1cc(CN2CCN(C3CC4(CCN(c5ccc(C(=O)NS(=O)(=O)c6cnc(NC[C@H]7CC[C@](C)(O)CC7)c([N+](=O)[O-])c6)c(Oc6cc7c(F)c[nH]c7nc6OC)c5)CC4)C3)[C@H](c3ccccc3C(C)C)C2)ccc1C1CC1 [Example 5] ? 1

* * *

test system: Toledo cells; test: Cell proliferation assay (MTS), Toledo cells; format: cell-based; settings: Homo sapiens, 72 h
endpoint.name: IC50 (nM)
Kindly answer with a numeric value in nM, unit omitted.

Query (molecule): `COc1nc2[nH]cc(F)c2cc1Oc1cc(N2CCC3(CC2)CC(N2CCN(Cc4ccc(OC(F)F)cc4)C[C@H]2c2ccccc2C(C)C)C3)ccc1C(=O)NS(=O)(=O)c1cnc(NC[C@H]2CC[C@](C)(O)CC2)c([N+](=O)[O-])c1` ; field requested: IC50 1

Requested read-out: IC50. Entry: `COc1nc2[nH]cc(F)c2cc1Oc1cc(N2CCC3(CC2)CC(N2CCN(Cc4ccc(F)cc4)C[C@H]2c2ccccc2C(C)C)C3)ccc1C(=O)NS(=O)(=O)c1cnc(NC[C@H]2CC[C@](C)(O)CC2)c([N+](=O)[O-])c1` 1

* * *

system: Toledo cells; test: Cell proliferation assay (MTS), Toledo cells; assay type: cell-based; conditions: Homo sapiens, 72 h
endpoint.name: IC50 (nM)
Answer with a number only, understood to be in nM.

For the compound `CC(C)c1ccccc1[C@@H]1CN(Cc2ccc3c(c2)CCO3)CCN1C1CC2(CCN(c3ccc(C(=O)NS(=O)(=O)c4cnc(NC[C@H]5CC[C@](C)(O)CC5)c([N+](=O)[O-])c4)c(Oc4cnc5[nH]cc(F)c5c4)c3)CC2)C1` , what IC50 is on record? 1

Quick check: IC50 of `CCOc1nc2[nH]cc(F)c2cc1Oc1cc(N2CCC3(CC2)CC(N2CCN(Cc4ccc(C5CC5)c(OC)c4)C[C@H]2c2ccccc2C(C)C)C3)ccc1C(=O)NS(=O)(=O)c1cnc(NC[C@H]2CC[C@](C)(O)CC2)c([N+](=O)[O-])c1` ? 1

* * *

test system: Toledo cells; assay: Cell proliferation assay (MTS), Toledo cells; assay type: cell-based; conditions: Homo sapiens, 72 h
endpoint.name: pIC50
Please note pIC50 is a logarithmic value: minus log10 of concentration in mol/L. Answer with that number alone.

Dear colleague, I am looking for the recorded pIC50 of the following compound: `COc1nc2[nH]cc(F)c2cc1Oc1cc(N2CCC3(CC2)CC(N2CCOC[C@H]2c2ccccc2C(C)C)C3)ccc1C(=O)NS(=O)(=O)c1cnc(NC[C@H]2CC[C@](C)(O)CC2)c([N+](=O)[O-])c1` 9.00

// query pIC50 value for entry `COc1nc2[nH]cc(F)c2cc1Oc1cc(N2CCC3(CC2)CC(N2CCN(Cc4ccc(OC)c5oc(C)cc45)C[C@H]2c2ccccc2C(C)C)C3)ccc1C(=O)NS(=O)(=O)c1cnc(NC[C@H]2CC[C@](C)(O)CC2)c([N+](=O)[O-])c1` 9.00

* * *

test: Pharmacokinetics assay in rats; format: in vivo; conditions: rat; male Sprague-Dawley rats, po, 5 mg/kg, plasma; read-out: Cmax/C0
endpoint.name: Cmax (ng/mL)
Answer with a number only, understood to be in ng/mL.

Can you share its Cmax? I mean this compound: `COc1nc2[nH]cc(F)c2cc1Oc1cc(N2CCC3(CC2)CC(N2CCN(Cc4ccc(F)cc4)C[C@H]2c2ccccc2C(C)C)C3)ccc1C(=O)NS(=O)(=O)c1cnc(NC[C@H]2CC[C@](C)(O)CC2)c([N+](=O)[O-])c1` 439

I'd like to know its Cmax. The compound in question is `COc1nc2[nH]cc(F)c2cc1Oc1cc(N2CCC3(CC2)CC(N2CCN(Cc4ccc(Cl)cc4)C[C@H]2c2ccccc2C(C)C)C3)ccc1C(=O)NS(=O)(=O)c1cnc(NC[C@H]2CC[C@](C)(O)CC2)c([N+](=O)[O-])c1` 329

// query Cmax value for entry `COc1nc2[nH]cc(F)c2cc1Oc1cc(N2CCC3(CC2)CC(N2CCN(Cc4ccc(OC(F)F)cc4)C[C@H]2c2ccccc2C(C)C)C3)ccc1C(=O)NS(=O)(=O)c1cnc(NC[C@H]2CC[C@](C)(O)CC2)c([N+](=O)[O-])c1` 406

Query (compound): `COc1nc2[nH]cc(F)c2cc1Oc1cc(N2CCC3(CC2)CC(N2CCN(Cc4ccc(F)c(F)c4)C[C@H]2c2ccccc2C(C)C)C3)ccc1C(=O)NS(=O)(=O)c1cnc(NC[C@H]2CC[C@](C)(O)CC2)c([N+](=O)[O-])c1` ; field requested: Cmax 382

* * *

tested on: Toledo cells; test: Cell proliferation assay (MTS), Toledo cells; assay type: cell-based; details: Homo sapiens, 72 h
Give measured pIC50 for each item. Keep answers brief.
Note: pIC50 values are expressed as the negative base-10 logarithm of concentration in M.

Value lookup for pIC50; key = CC(C)c1ccccc1[C@@H]1CN(Cc2ccc(F)c(F)c2)CCN1C1CC2(CCN(c3ccc(C(=O)NS(=O)(=O)c4cnc(NC[C@H]5CC[C@](C)(O)CC5)c([N+](=O)[O-])c4)c(Oc4cnc5[nH]cc(F)c5c4)c3)CC2)C1 [Example 72] 9.00

Reported pIC50 for CC(C)c1ccccc1[C@@H]1CN(Cc2ccc(F)cc2)CCN1C1CC2(CCN(c3ccc(C(=O)NS(=O)(=O)c4cnc(NC[C@H]5CC[C@](C)(O)CC5)c([N+](=O)[O-])c4)c(Oc4cnc5[nH]cc(F)c5c4)c3)CC2)C1 [Example 232] : what is it? 9.00

Which pIC50 is listed for CC(C)c1ccccc1[C@@H]1CN(Cc2ccnc(Cl)c2)CCN1C1CC2(CCN(c3ccc(C(=O)NS(=O)(=O)c4cnc(NC[C@H]5CC[C@](C)(O)CC5)c([N+](=O)[O-])c4)c(Oc4cnc5[nH]cc(F)c5c4)c3)CC2)C1 [Example 358] ? 9.00

Query: pIC50; subject: COc1cc(CN2CCN(C3CC4(CCN(c5ccc(C(=O)NS(=O)(=O)c6cnc(NC[C@H]7CC[C@](C)(O)CC7)c([N+](=O)[O-])c6)c(Oc6cc7c(F)c[nH]c7nc6OC)c5)CC4)C3)[C@H](c3ccccc3C(C)C)C2)cnc1C1CC1 [Example 254] 9.00

* * *

assay: Pharmacokinetics assay in rats; type: in vivo; details: rat; male Sprague-Dawley rats, po, 5 mg/kg, plasma
endpoint.name: half-life (h)
# unit: h | format: bare number

Given the molecule COc1nc2[nH]cc(F)c2cc1Oc1cc(N2CCC3(CC2)CC(N2CCN(Cc4ccc(F)cc4)C[C@H]2c2ccccc2C(C)C)C3)ccc1C(=O)NS(=O)(=O)c1cnc(NC[C@H]2CC[C@](C)(O)CC2)c([N+](=O)[O-])c1 [Example 233] , what is its reported half-life? 7.36

// lookup half-life for COc1nc2[nH]cc(F)c2cc1Oc1cc(N2CCC3(CC2)CC(N2CCN(Cc4ccc(Cl)cc4)C[C@H]2c2ccccc2C(C)C)C3)ccc1C(=O)NS(=O)(=O)c1cnc(NC[C@H]2CC[C@](C)(O)CC2)c([N+](=O)[O-])c1 [Example 230] 10.2

Look up half-life for this molecule: COc1ccc(CN2CCN(C3CC4(CCN(c5ccc(C(=O)NS(=O)(=O)c6cnc(NC[C@H]7CC[C@](C)(O)CC7)c([N+](=O)[O-])c6)c(Oc6cc7c(F)c[nH]c7nc6OC)c5)CC4)C3)[C@H](c3ccccc3C(C)C)C2)cc1 [Example 1] 9.02
